The origin of these recorded values is ChEMBL document CHEMBL5608141.

- System: Colon cancer organoid
- method_summary: Identification of compartment-specific drug sensitivities in O20 CRC organoid-stroma F20 CAF co-cultures. Organoid is transduced with Lucferase2-P2A-EGFP lentivirus, fibroblast with Renilla-dsRed lentivirus. Dual-Glo Luciferase assay is used to report viability data.
- Type: functional, Homo sapiens
- Parameters: dose or concentration left out as unconfirmed
- experimental_setup: Transduced with Lucferase2-P2A-EGFP lentivirus
Under this convention, y denotes Cell Viability strictly below 70% and n denotes Cell Viability at or above 70%.

[Q] Quick check: Cell Viability of Cn1c(C2(NC(=O)c3ccc(NCC4CCCCC4)nc3)CCC2)nc2ccc(/C=C/C(=O)O)cc21 under 70%?
[A] n

[Q] Quick check: Cell Viability of COc1ccc(Cn2ccc3ccc(C(=O)NO)cc32)cc1 under 70%?
[A] n

[Q] Quick check: Cell Viability of Cn1cncc1[C@@](O)(COc1ccc(C#N)cc1-c1ccc(OC(F)(F)F)cc1)c1ccc(C#N)cc1 under 70%?
[A] n

[Q] Quick check: Cell Viability of CCOc1cc(N2CCC(O)CC2)ccc1Nc1ncc2c(n1)N(C)c1ccccc1C(=O)N2C under 70%?
[A] n

[Q] Quick check: Cell Viability of c1ccc2oc(-c3csc(C4CCN(Cc5nc6ncccc6[nH]5)CC4)n3)cc2c1 under 70%?
[A] y

[Q] Quick check: Cell Viability of Cc1c(NC(=O)c2cc(C(N)=O)nc3cc(F)ccc23)c(C(F)(F)F)nn1Cc1ccc(C#N)cc1 under 70%?
[A] y

[Q] Quick check: Cell Viability of C[C@@H](NC(=O)Nc1cc2[nH]ncc2c(CO)n1)c1ccccc1 under 70%?
[A] y

[Q] Quick check: Cell Viability of CN1CCN(c2ccnc(NCCc3ccccc3)n2)CC1 [TP-040n] under 70%?
[A] y

[Q] Quick check: Cell Viability of O[C@H]1CC[C@H](Nc2ncc3nc(Nc4c(F)cc(F)cc4F)n([C@H]4CCOC4)c3n2)CC1 under 70%?
[A] n

###

- Test system: Colon cancer organoid
- method_summary: Identification of compartment-specific drug sensitivities in O06 CRC organoid-stroma F06 CAF co-cultures. Organoid is transduced with Lucferase2-P2A-EGFP lentivirus, fibroblast with Renilla-dsRed lentivirus. Dual-Glo Luciferase assay is used to report viability data.
- Assay type: functional, Homo sapiens
- Design: dose or concentration left out as unconfirmed
- experimental_setup: Transduced with Renilla-dsRed lentivirus
metric: Cell Viability (%)
Your answer should be a plain number; it is taken to be in %.

[Q] Please give the measured Cell Viability for this compound: Cc1c(NC(=O)c2cc(C(N)=O)nc3cc(F)ccc23)c(C(F)(F)F)nn1Cc1ccc(C#N)cc1
[A] 337.56

[Q] Please give the measured Cell Viability for this compound: Cc1c(C(=O)Nc2ccc(Oc3ccnc4[nH]cc(-c5ccccc5)c34)c(F)c2)c(=O)n(-c2ccc(F)cc2)n1C
[A] 56.2803

[Q] Please give the measured Cell Viability for this compound: CN(C)[C@H]1CCN(c2cc(-c3ccccc3)nc3ccnn23)C1 [(S)-ZINC-3573]
[A] 121.05

[Q] Please give the measured Cell Viability for this compound: O=C(N1CCS(=O)(=O)CC1)N1C[C@H](c2ccc(OC(F)(F)F)cc2)C[C@H](c2nc(C3CC3)no2)C1
[A] 172.496

[Q] Please give the measured Cell Viability for this compound: CCN(C(=O)CO)[C@H]1CN(/C(=N\C#N)Nc2cccc(OC(F)F)c2)N=C1c1ccc(Cl)c(Cl)c1
[A] 102.729

[Q] Please give the measured Cell Viability for this compound: Cc1cc(C)cc([C@@H]2c3cc(C)ccc3NC(=O)CN2C(=O)c2ccc(Br)s2)c1
[A] 464.523

[Q] Please give the measured Cell Viability for this compound: CCOC(=O)CCNc1cc(N2CCc3ccccc3CC2)nc(-c2cccnc2)n1
[A] 124.082

[Q] Please give the measured Cell Viability for this compound: CN(C)[C@@H]1CCN(c2cc(-c3ccccc3)nc3ccnn23)C1 [(R)-ZINC-3573]
[A] 121.371
